Data origin, for the record: patent US7538132B2

# target entity: GABA A receptor α5β3γ2 (hα5) (Homo sapiens, UniProt P18507+P31644)
# Construct: expressed in transfected cells; host or cells: HEK293 (transiently transfected; membranes prepared from cell pellets)
# protocol summary: [3H]flumazenil competition binding assay, human GABA A α5β3γ2 receptors
# conditions: displacement of [3H]flumazenil (0.5 nM) from membranes of HEK293 cells expressing human α5β3γ2; 1 hour at 4° C.; means of two determinations
Known Ki of a selection of compounds
Lab book: enter the figure in µM, no units written.

>>> print(df.to_string())
                                item_smiles  measured
0  Cc1onc(-c2ccc(F)c(F)c2)c1C(=O)c1c[nH]c(C(=O)NC2CCOCC2)c1    0.0042
1  Cc1onc(-c2ccccc2)c1C(=O)c1c[nH]c(C(=O)NC2CCC2)c1   0.00795
2  C#CCNC(=O)c1cc(C(=O)c2c(-c3ccc(Cl)cc3)noc2C)c[nH]1   0.00745
3  CCc1onc(-c2ccccc2)c1C(=O)c1c[nH]c(C(=O)NC2CC2)c1   0.00485
4  Cc1onc(-c2ccc(Cl)cc2)c1C(=O)c1c[nH]c(C(=O)NC2CCOCC2)c1    0.0014
5  Cc1onc(-c2ccc(F)cc2)c1C(=O)c1c[nH]c(C(=O)NC2CC2)c1    0.0041
6  Cc1onc(-c2ccc(F)cc2)c1C(=O)c1c[nH]c(C(=O)NCCO)c1    0.0099
7  Cc1onc(-c2ccc(Cl)cc2)c1C(=O)c1c[nH]c(C(=O)NC2CCCC2)c1    0.0052
8  Cc1onc(-c2ccc(Br)cc2)c1C(=O)c1c[nH]c(C(=O)NC(C)C)c1   0.00685
9  C#CCNC(=O)c1cc(C(=O)c2c(-c3ccc(F)cc3)noc2C)c[nH]1   0.00775

Bench note: what Ki did `Cc1onc(-c2ccccc2F)c1C(=O)c1c[nH]c(C(=O)NC2CCCC2)c1` show?
0.0063

Bench note: what Ki did `Cc1onc(-c2ccc(Cl)cc2)c1C(=O)c1c[nH]c(C(=O)NC2CC2)c1` show?
0.0061

Bench note: what Ki did `Cc1onc(-c2ccc(Cl)cc2)c1C(=O)c1c[nH]c(C(=O)NCCO)c1` show?
0.00755

Bench note: what Ki did `Cc1onc(-c2ccc(F)c(F)c2)c1C(=O)c1c[nH]c(C(=O)NC2CCCC2)c1` show?
0.0064

Bench note: what Ki did `COCc1onc(-c2ccc(F)cc2)c1C(=O)c1c[nH]c(C(=O)NC2CCOCC2)c1` show?
0.0043
